study_target: jack bean (JB) urease (Canavalia ensiformis)
Sequence (P07374 whole entry, looked up): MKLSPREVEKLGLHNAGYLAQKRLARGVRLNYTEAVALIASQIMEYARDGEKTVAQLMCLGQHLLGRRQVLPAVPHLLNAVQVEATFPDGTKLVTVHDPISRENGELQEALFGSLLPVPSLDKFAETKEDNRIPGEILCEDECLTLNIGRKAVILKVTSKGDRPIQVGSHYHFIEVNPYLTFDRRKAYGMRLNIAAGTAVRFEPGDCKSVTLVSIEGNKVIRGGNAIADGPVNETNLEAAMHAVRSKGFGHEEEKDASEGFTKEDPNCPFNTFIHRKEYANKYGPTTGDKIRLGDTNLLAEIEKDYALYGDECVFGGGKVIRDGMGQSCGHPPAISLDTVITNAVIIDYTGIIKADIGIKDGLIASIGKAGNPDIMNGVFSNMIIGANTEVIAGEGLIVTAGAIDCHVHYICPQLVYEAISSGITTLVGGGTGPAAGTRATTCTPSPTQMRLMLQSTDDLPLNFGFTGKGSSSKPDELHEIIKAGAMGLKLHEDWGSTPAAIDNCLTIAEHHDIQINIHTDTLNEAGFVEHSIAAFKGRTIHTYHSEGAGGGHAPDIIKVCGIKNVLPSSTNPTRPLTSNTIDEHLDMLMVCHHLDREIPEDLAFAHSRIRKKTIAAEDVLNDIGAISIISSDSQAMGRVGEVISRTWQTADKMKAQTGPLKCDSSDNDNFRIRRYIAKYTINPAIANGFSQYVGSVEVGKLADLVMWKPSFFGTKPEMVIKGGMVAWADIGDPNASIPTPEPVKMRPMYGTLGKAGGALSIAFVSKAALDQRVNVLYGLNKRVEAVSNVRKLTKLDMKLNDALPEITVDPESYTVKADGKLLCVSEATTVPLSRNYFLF
procedure_summary: Urease inhibitory assay
Format: biochemical
condition_label: read-out: inhibition (%) at 0.25 mM, JB urease; 0.25 mM; mean ± SEM, n = 3–4
readout_name: inhibition at 250 µM (%)

molecule: CO/N=C(\C(=O)N[C@@H]1C(=O)N2C(C(=O)O)=C(CSc3nc(=O)c(=O)[nH]n3C)CS[C@H]12)c1csc(N)n1
study_target: jack bean (JB) urease (Canavalia ensiformis)
numeric_value: 72.6

molecule: O=C(O)c1cn(C2CC2)c2cc(N3CCNCC3)c(F)cc2c1=O
study_target: jack bean (JB) urease (Canavalia ensiformis)
numeric_value: 78.3

molecule: C[C@@H]1CN(c2c(F)c(N)c3c(=O)c(C(=O)O)cn(C4CC4)c3c2F)C[C@H](C)N1
study_target: jack bean (JB) urease (Canavalia ensiformis)
numeric_value: 57.6

molecule: CC1=C(C(=O)O)N2C(=O)[C@@H](NC(=O)[C@H](N)c3ccccc3)[C@H]2SC1
study_target: jack bean (JB) urease (Canavalia ensiformis)
numeric_value: 72.5

molecule: CC1=C(C(=O)O)N2C(=O)[C@@H](NC(=O)[C@H](N)C3=CCC=CC3)[C@H]2SC1
study_target: jack bean (JB) urease (Canavalia ensiformis)
numeric_value: 54.9

molecule: CC1=C(C(=O)O)N2C(=O)[C@@H](NC(=O)[C@H](N)c3ccc(O)cc3)[C@H]2SC1
study_target: jack bean (JB) urease (Canavalia ensiformis)
numeric_value: 91.3

molecule: N[C@@H](C(=O)N[C@@H]1C(=O)N2C(C(=O)O)=C(Cl)CS[C@H]12)c1ccccc1
study_target: jack bean (JB) urease (Canavalia ensiformis)
numeric_value: 92.4

molecule: C=CC1=C(C(=O)O)N2C(=O)[C@@H](NC(=O)/C(=N\OCC(=O)O)c3csc(N)n3)[C@H]2SC1
study_target: jack bean (JB) urease (Canavalia ensiformis)
numeric_value: 68.5
